assay: Solubility and gelling ability with each liquid; critical gelation concentration by sample tube inversion method; assay type: physicochemical; set-up: key: S: Soluble; I: Insoluble/separation; G: Gel; T: Thickening; EG: Emulsion gel; conditions: Octyldodecanol
ASSAY_METRIC: solubility and gelling ability

Reference set (4 entries):
# solubility and gelling ability (compound: CCCCCCCCCCCCNC(=O)CCCOC(=O)CCCCCCCCCCC [LBA-L, N-laurylbutyramide-4-lauric acid ester] ) is G

# solubility and gelling ability of CCCCCCCCCCCC(=O)OCCCC(=O)NCC(CC)CCCC (centres unmarked) = S

The compound CCCCCCCCCCCC(=O)OCCCC(=O)NC1CCCCC1 showed solubility and gelling ability equal to G

Lab note: measured solubility and gelling ability of CCCCCCCCCCCCCC(=O)OCCCC(=O)NCCCCCCCCCCCC [LBA-M, N-laurylbutyramide-4-myristic acid ester] was G

Okay, next one:
Please fill in: solubility and gelling ability reported for CCCCCCCCCCCC(=O)OCCCC(=O)NCCCCCCCC [OBA-L, N-octylbutyramide-4-lauric acid ester] = G

----------
assay: Solubility and gelling ability with each liquid; critical gelation concentration by sample tube inversion method; assay type: physicochemical; design: key: S: Soluble; I: Insoluble/separation; G: Gel; T: Thickening; EG: Emulsion gel; conditions: Triethylhexanoin
ASSAY_METRIC: solubility and gelling ability

# count of solved cases: 4
solubility and gelling ability in this record for CCCCCCCCCCCC(=O)OCCCC(=O)NC1CCCCC1 : G

CCCCCCCCCCCCCC(=O)OCCCC(=O)NCCCCCCCCCCCC [LBA-M, N-laurylbutyramide-4-myristic acid ester] yielded solubility and gelling ability of G

Noted for CCCCCCCCCCCC(=O)OCCCC(=O)NCC(CC)CCCC (centres unmarked) : its solubility and gelling ability reads I

response.value for CCCCCCCCCCCC(=O)OCCCC(=O)NCCCCCCCC [OBA-L, N-octylbutyramide-4-lauric acid ester] (field: solubility and gelling ability) = G

The record that follows has no solubility and gelling ability shown yet.
Reported solubility and gelling ability ( CCCCCCCCCCCCNC(=O)CCCOC(=O)CCCCCCCCCCC [LBA-L, N-laurylbutyramide-4-lauric acid ester] ) = G

----------
test: Solubility and gelling ability with each liquid; critical gelation concentration by sample tube inversion method; assay type: physicochemical; parameters: key: S: Soluble; I: Insoluble/separation; G: Gel; T: Thickening; EG: Emulsion gel; details: Octyldodecyl myristate
ASSAY_METRIC: solubility and gelling ability

For CCCCCCCCCCCCNC(=O)CCCOC(=O)CCCCCCCCCCC [LBA-L, N-laurylbutyramide-4-lauric acid ester] the compound record lists solubility and gelling ability as G

The recorded solubility and gelling ability for CCCCCCCCCCCC(=O)OCCCC(=O)NCCCCCCCC [OBA-L, N-octylbutyramide-4-lauric acid ester] is G

Briefly, solubility and gelling ability measured for CCCCCCCCCCCC(=O)OCCCC(=O)NC1CCCCC1 : G

Item: CCCCCCCCCCCCCC(=O)OCCCC(=O)NCCCCCCCCCCCC [LBA-M, N-laurylbutyramide-4-myristic acid ester] | solubility and gelling ability: G

Next compound, solubility and gelling ability to be filled in.
Short answer for CCCCCCCCCCCC(=O)OCCCC(=O)NCC(CC)CCCC (centres unmarked) : solubility and gelling ability was S

----------
test: Solubility and gelling ability with each liquid; critical gelation concentration by sample tube inversion method; type: physicochemical; parameters: key: S: Soluble; I: Insoluble/separation; G: Gel; T: Thickening; EG: Emulsion gel; settings: Squalane
ASSAY_METRIC: solubility and gelling ability

compound CCCCCCCCCCCCCC(=O)OCCCC(=O)NCCCCCCCCCCCC [LBA-M, N-laurylbutyramide-4-myristic acid ester] , solubility and gelling ability observed: G

solubility and gelling ability reported for this compound CCCCCCCCCCCCNC(=O)CCCOC(=O)CCCCCCCCCCC [LBA-L, N-laurylbutyramide-4-lauric acid ester] : G

For CCCCCCCCCCCC(=O)OCCCC(=O)NCC(CC)CCCC (centres unmarked) the compound record lists solubility and gelling ability as I

According to the records, this compound CCCCCCCCCCCC(=O)OCCCC(=O)NC1CCCCC1 displays solubility and gelling ability of G

In the following, a different compound is considered.
So for CCCCCCCCCCCC(=O)OCCCC(=O)NCCCCCCCC [OBA-L, N-octylbutyramide-4-lauric acid ester] , the logged solubility and gelling ability turned out to be G

----------
experiment: Solubility and gelling ability with each liquid; critical gelation concentration by sample tube inversion method; type: physicochemical; conditions: physical form of the ester
ASSAY_METRIC: Property

compound CCCCCCCCCCCCNC(=O)CCCOC(=O)CCCCCCCCCCC [LBA-L, N-laurylbutyramide-4-lauric acid ester] , Property observed: Solid

Value of Property reported for the compound CCCCCCCCCCCCCC(=O)OCCCC(=O)NCCCCCCCCCCCC [LBA-M, N-laurylbutyramide-4-myristic acid ester] is Solid

Property recorded for this compound, CCCCCCCCCCCC(=O)OCCCC(=O)NC1CCCCC1 , is Solid

Reported Property for CCCCCCCCCCCC(=O)OCCCC(=O)NCCCCCCCC [OBA-L, N-octylbutyramide-4-lauric acid ester] was Solid

API: the following record is the query input.
Reported Property ( CCCCCCCCCCCC(=O)OCCCC(=O)NCC(CC)CCCC (centres unmarked) ) = Solid
